# Tested on: Mice
# assay: in vivo
# measurement.setup: compared with parent carbamate (methomyl or MIP)
metric.name: mammalian toxicity (in words)

Qu. Find the measured mammalian toxicity (in words) of CSC(C)=NOC(=O)N(C)S(=O)OCc1ccccn1 (centres unmarked) and report it.
Ans. low

Qu. Find the measured mammalian toxicity (in words) of CSC(C)=NOC(=O)N(C)S(=O)OCc1cccnc1 (centres unmarked) and report it.
Ans. low

###

# assay: in vivo
# measurement.setup: mouse, in vivo, po
metric.name: LD50 (mg/kg)
Numeric only. Scale: mg/kg

Qu. Find the measured LD50 of CC(C)c1cccc(OC(=O)N(C)S(=O)OCc2ccccn2)c1 (stereo not drawn) and report it.
Ans. 105

Qu. Find the measured LD50 of CSC(C)=NOC(=O)N(C)S(=O)OCc1ccccn1 (stereo not drawn) and report it.
Ans. 85

Attention now turns to another entry.
Qu. Find the measured LD50 of CSC(C)=NOC(=O)N(C)S(=O)OCc1cccnc1 (stereo not drawn) and report it.
Ans. 96

###

# Test system: House Flies
# measurement.setup: topical on the notum, 1 μl acetone solution, 24 hours
metric.name: House Flies LD50 (µg/g)
Numeric only. Scale: µg/g

// known answers, use as guide
Qu. Find the measured House Flies LD50 of CNC(=O)ON=C(C)SC [methomyl, reference compound] and report it.
Ans. 3.7

Qu. Find the measured House Flies LD50 of CSC(C)=NOC(=O)N(C)S(=O)OCc1cccnc1 (stereo not shown) [III] and report it.
Ans. 5.8

Continuing:
Qu. Find the measured House Flies LD50 of CC(C)c1cccc(OC(=O)N(C)S(=O)OCc2ccccn2)c1 (stereo not shown) [IX] and report it.
Ans. 111.5

Qu. Find the measured House Flies LD50 of CSC(C)=NOC(=O)N(C)S(=O)OCc1ccccn1 (stereo not shown) [I] and report it.
Ans. 7.0
